Items are presented alongside their recorded Ki.
Biological target: hCA II (Homo sapiens, UniProt P00918)
Construct: gene CA2; purchased from Merck
Test: stopped-flow CO2 hydration
Type: biochemical
Settings: read-out: KI (nM) * / Human Isoforms / hCA II
ASSAY_METRIC: Ki (nM)

| SMILES_NOTATION | TEST_SYSTEM | MEASURED_VALUE |
| --- | --- | --- |
| Cc1cc(/N=N/c2ccc(S(N)(=O)=O)cc2)ccc1O | hCA II (Homo sapiens, UniProt P00918) | 3.4 |
| COc1cc(O)ccc1/N=N/c1ccc(S(N)(=O)=O)cc1 | hCA II (Homo sapiens, UniProt P00918) | 5.4 |
| COc1cc(/N=N/c2ccc(S(N)(=O)=O)cc2)ccc1O | hCA II (Homo sapiens, UniProt P00918) | 3.3 |
| COc1ccc(O)c(/N=N/c2ccc(S(N)(=O)=O)cc2)c1 | hCA II (Homo sapiens, UniProt P00918) | 24.1 |
| Cc1ccc(O)c(/N=N/c2ccc(S(N)(=O)=O)cc2)c1 | hCA II (Homo sapiens, UniProt P00918) | 6.6 |

The reported measurements were obtained from paper PMC11357054.
